Just for reference, patent US8759334B2 is where these values come from.

# IC50 per entry
Biological target: GPR43 (Homo sapiens)
Construct: expressed in transfected cells
Sequence (O15552 whole entry): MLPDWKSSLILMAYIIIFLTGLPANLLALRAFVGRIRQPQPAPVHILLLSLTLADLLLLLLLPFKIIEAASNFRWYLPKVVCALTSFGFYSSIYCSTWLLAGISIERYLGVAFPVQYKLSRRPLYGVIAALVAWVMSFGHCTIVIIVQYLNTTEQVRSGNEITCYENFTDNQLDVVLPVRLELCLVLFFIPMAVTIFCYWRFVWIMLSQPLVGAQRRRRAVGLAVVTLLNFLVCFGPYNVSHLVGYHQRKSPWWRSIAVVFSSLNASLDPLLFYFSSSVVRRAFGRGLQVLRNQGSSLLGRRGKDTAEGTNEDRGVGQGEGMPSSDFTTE
Assay: Calcium mobilization assay with probenecid
Type: cell-based
Conditions: GPR43 stably expressing cells; triggered with sodium acetate at EC80; 2.5 mM probenecid; read-out: GPR43 assay with probenicid IC50

Check out these entries, answers already filled in.
compound	IC50
CCOC(=O)CCCN(Cc1ccc(C(F)(F)F)cc1)C(=O)C1(C)CCN1C(=O)Cc1csc2ccccc12 (centres unmarked)	> 1000 nM
Cc1cc(C)cc(CC(=O)N2CCC2(C)C(=O)N(C)Cc2ccc(Cl)c(F)c2)c1 (centres unmarked)	> 1000 nM
CN(Cc1ccc(Cl)cc1)C(=O)C1(C)CCN1C(=O)Cc1ccc(-c2ccccc2)cc1 (centres unmarked)	> 1000 nM
CCOC(=O)CCCN(Cc1ccc(C(F)(F)F)cc1)C(=O)C1(C)CCN1C(=O)Cc1coc2ccccc12 (centres unmarked)	> 1000 nM

Tell me its IC50 on GPR43 (Homo sapiens): CC1(C(=O)N(CCCC(=O)N2CCOCC2)Cc2ccc(Cl)cc2)CCN1C(=O)c1ccc2sccc2c1 (centres unmarked) > 1000 nM

Tell me its IC50 on GPR43 (Homo sapiens): CC1(C(=O)N(CCCC(=O)O)Cc2ccc3cc[nH]c3c2)CCN1C(=O)Cc1csc2ccccc12 (centres unmarked) 0.01 to 100 nM

Tell me its IC50 on GPR43 (Homo sapiens): Cc1cc(C)cc(CC(=O)N2CCC2(C)C(=O)N(CCc2noc(O)n2)Cc2ccc(Cl)cc2)c1 (centres unmarked) > 1000 nM
